- reported.conditions: in 1,4-dioxane, 328.15 K
readout.label: solubility (mole fraction)
Give your answer as a number; write no unit.

### Prompt Can you look up the measured solubility (mole fraction) of `CN(C)/C=C/C(=O)c1cccnc1` for me?
### Response 0.0779

====

- reported.conditions: in 1,4-dioxane, 303.15 K
readout.label: solubility (mole fraction)
Output: the number by itself.

### Prompt Please look up its solubility (mole fraction): `CN(C)/C=C/C(=O)c1cccnc1`
### Response 0.0427

====

- reported.conditions: in methanol, 313.15 K
readout.label: solubility (mole fraction)
Form: value (number only, do not type unit).

### Prompt Item `CN(C)/C=C/C(=O)c1cccnc1` has what recorded solubility (mole fraction)?
### Response 0.0533
